Assay: Selectivity index, ratio of CC50 for human PANC1 cells to MIC for dormant stage of Mycobacterium bovis BCG ATCC 35734
Assay type: toxicity, cell-based, PANC-1
Settings: read-out: Selectivity Index
Examples of molecules with documented selectivity ratio follow.

smiles | selectivity ratio
Cc1ccc(-c2nnc(-c3sc(-c4cccnc4)nc3C)o2)cc1 | 3
COc1ccccc1-c1nnc(-c2sc(-c3cccnc3)nc2C)o1 | 25
Cc1nc(-c2cccnc2)sc1-c1nnc(-c2ccccc2)o1 | 3
Cc1nc(-c2cccnc2)sc1-c1nnc(-c2cccnc2)o1 | 1
Cc1nc(-c2cccnc2)sc1-c1nnc(-c2ccccc2Cl)o1 | 21
Cc1nc(-c2cccnc2)sc1-c1nnc(Cc2ccccc2)o1 | 10
Cc1nc(-c2cccnc2)sc1-c1nnc(-c2ccc(Br)cc2)o1 | 3

###

Examples of compounds with documented CC50 follow.
Assay: Cytotoxicity against human THP1 cells by MTT assay
Format: cell-based, THP-1

compound | CC50
Cc1ccccc1-c1nnc(-c2sc(-c3cccnc3)nc2C)o1 | > 100 µg/mL
Cc1nc(-c2cccnc2)sc1-c1nnc(-c2ccncc2)o1 | > 100 µg/mL
CC(=O)O[C@H]1C(=O)[C@@]2(C)[C@H]([C@H](OC(=O)c3ccccc3)[C@]3(O)C[C@H](OC(=O)[C@H](O)[C@@H](NC(=O)c4ccccc4)c4ccccc4)C(C)=C1C3(C)C)[C@]1(OC(C)=O)CO[C@@H]1C[C@@H]2O [PACLITAXEL] | 0.137 µg/mL
Cc1ccc(-c2nnc(-c3sc(-c4cccnc4)nc3C)o2)cc1 | > 100 µg/mL

###

Examples of compounds with documented selectivity ratio follow.
Assay: Selectivity index, ratio of CC50 for human HCT116 cells to MIC for dormant stage of Mycobacterium bovis BCG ATCC 35734
Assay type: toxicity, cell-based, HCT-116
Conditions: read-out: Selectivity Index

smiles | selectivity ratio
Cc1ccccc1-c1nnc(-c2sc(-c3cccnc3)nc2C)o1 | 20
Cc1nc(-c2cccnc2)sc1-c1nnc(-c2cccc(Cl)c2Cl)o1 | 3
Cc1nc(-c2cccnc2)sc1-c1nnc(-c2ccc([N+](=O)[O-])cc2)o1 | 3
Cc1nc(-c2cccnc2)sc1-c1nnc(Cc2ccccc2)o1 | 10
Cc1nc(-c2cccnc2)sc1-c1nnc(-c2cccnc2)o1 | 1
Cc1nc(-c2cccnc2)sc1-c1nnc(-c2ccc(O)cc2)o1 | 3
Cc1ccc(-c2nnc(-c3sc(-c4cccnc4)nc3C)o2)cc1 | 3

###

Test: Selectivity index, ratio of CC50 for human HeLa cells to MIC for dormant stage of Mycobacterium bovis BCG ATCC 35734
Format: toxicity, cell-based
Details: read-out: Selectivity Index

smiles | selectivity ratio
Cc1nc(-c2cccnc2)sc1-c1nnc(Cc2ccccc2)o1 | 10
Cc1nc(-c2cccnc2)sc1-c1nnc(-c2ccc(O)cc2)o1 | 3
COc1ccccc1-c1nnc(-c2sc(-c3cccnc3)nc2C)o1 | 25
Cc1nc(-c2cccnc2)sc1-c1nnc(-c2ccccc2)o1 | 3
Cc1nc(-c2cccnc2)sc1-c1nnc(-c2cccnc2)o1 | 1
Cc1ccc(-c2nnc(-c3sc(-c4cccnc4)nc3C)o2)cc1 | 3
Cc1nc(-c2cccnc2)sc1-c1nnc(-c2cccc(Cl)c2Cl)o1 | 3

###

Experiment: Selectivity index, ratio of CC50 for human HeLa cells to MIC for dormant stage of Mycobacterium bovis BCG ATCC 35734
Assay type: toxicity, cell-based
Conditions: read-out: Selectivity Index
Everything with selectivity ratio lower than 3 is no; everything else, including exactly 3, is yes.

smiles | class_label
Cc1nc(-c2cccnc2)sc1-c1nnc(-c2ccccc2Cl)o1 | yes
Cc1ccccc1-c1nnc(-c2sc(-c3cccnc3)nc2C)o1 | yes
CO[C@H]1/C=C/O[C@@]2(C)Oc3c(C)c(O)c4c(O)c(c(/C=N/N5CCN(C)CC5)c(O)c4c3C2=O)NC(=O)/C(C)=C\C=C\[C@H](C)[C@H](O)[C@@H](C)[C@@H](O)[C@@H](C)[C@H](OC(C)=O)[C@@H]1C | yes
Cc1nc(-c2cccnc2)sc1-c1nnc(-c2ccccc2[N+](=O)[O-])o1 | yes
Cc1nc(-c2cccnc2)sc1-c1nnc(-c2ccncc2)o1 | no

###

Assay: Selectivity index, ratio of CC50 for human PANC1 cells to MIC for dormant stage of Mycobacterium bovis BCG ATCC 35734
Assay type: toxicity, cell-based, PANC-1
Conditions: read-out: Selectivity Index
Examples of compounds with documented selectivity ratio follow.

smiles | selectivity ratio
Cc1nc(-c2cccnc2)sc1-c1nnc(-c2ccncc2)o1 | 2
Cc1cccc(-c2nnc(-c3sc(-c4cccnc4)nc3C)o2)c1 | 3
Cc1nc(-c2cccnc2)sc1-c1nnc(-c2ccc(O)cc2)o1 | 3
Cc1ccccc1-c1nnc(-c2sc(-c3cccnc3)nc2C)o1 | 20
Cc1nc(-c2cccnc2)sc1-c1nnc(-c2ccccc2[N+](=O)[O-])o1 | 17
Cc1nc(-c2cccnc2)sc1-c1nnc(-c2ccc(Cl)cc2)o1 | 3
CO[C@H]1/C=C/O[C@@]2(C)Oc3c(C)c(O)c4c(O)c(c(/C=N/N5CCN(C)CC5)c(O)c4c3C2=O)NC(=O)/C(C)=C\C=C\[C@H](C)[C@H](O)[C@@H](C)[C@@H](O)[C@@H](C)[C@H](OC(C)=O)[C@@H]1C | 714
Cc1nc(-c2cccnc2)sc1-c1nnc(-c2ccc([N+](=O)[O-])cc2)o1 | 3
Cc1nc(-c2cccnc2)sc1-c1nnc(-c2cccc(Cl)c2Cl)o1 | 3

###

Test: Selectivity index, ratio of CC50 for human THP1 cells to MIC for active stage of Mycobacterium bovis BCG ATCC 35734
Type: toxicity, cell-based, THP-1
Details: read-out: Selectivity Index
measurement_type: selectivity ratio

smiles | val
Cc1ccccc1-c1nnc(-c2sc(-c3cccnc3)nc2C)o1 | 17
Cc1nc(-c2cccnc2)sc1-c1nnc(-c2ccc(Br)cc2)o1 | 3
CO[C@H]1/C=C/O[C@@]2(C)Oc3c(C)c(O)c4c(O)c(c(/C=N/N5CCN(C)CC5)c(O)c4c3C2=O)NC(=O)/C(C)=C\C=C\[C@H](C)[C@H](O)[C@@H](C)[C@@H](O)[C@@H](C)[C@H](OC(C)=O)[C@@H]1C | 1250
Cc1nc(-c2cccnc2)sc1-c1nnc(-c2ccccc2Cl)o1 | 19

###

Test: Selectivity index, ratio of CC50 for human PANC1 cells to MIC for active stage of Mycobacterium bovis BCG ATCC 35734
Format: toxicity, cell-based, PANC-1
Settings: read-out: Selectivity Index
Define the label as yes (1) when selectivity ratio is strictly less than 3 and as no (0) in all remaining cases.

molecule | class_label
Cc1nc(-c2cccnc2)sc1-c1nnc(-c2cccnc2)o1 | yes (1)
Cc1nc(-c2cccnc2)sc1-c1nnc(Cc2ccccc2)o1 | no (0)
Cc1nc(-c2cccnc2)sc1-c1nnc(-c2ccncc2)o1 | yes (1)
COc1ccccc1-c1nnc(-c2sc(-c3cccnc3)nc2C)o1 | no (0)
Cc1nc(-c2cccnc2)sc1-c1nnc(-c2ccccc2Cl)o1 | no (0)
Cc1ccccc1-c1nnc(-c2sc(-c3cccnc3)nc2C)o1 | no (0)
CO[C@H]1/C=C/O[C@@]2(C)Oc3c(C)c(O)c4c(O)c(c(/C=N/N5CCN(C)CC5)c(O)c4c3C2=O)NC(=O)/C(C)=C\C=C\[C@H](C)[C@H](O)[C@@H](C)[C@@H](O)[C@@H](C)[C@H](OC(C)=O)[C@@H]1C [RIFAMPIN] | no (0)
Cc1nc(-c2cccnc2)sc1-c1nnc(-c2ccccc2[N+](=O)[O-])o1 | no (0)

###

Experiment: Selectivity index, ratio of CC50 for human THP1 cells to MIC for dormant stage of Mycobacterium bovis BCG ATCC 35734
Format: toxicity, cell-based, THP-1
Details: read-out: Selectivity Index

smiles | selectivity ratio
Cc1nc(-c2cccnc2)sc1-c1nnc(-c2ccc(O)cc2)o1 | 3
COc1ccccc1-c1nnc(-c2sc(-c3cccnc3)nc2C)o1 | 25
Cc1nc(-c2cccnc2)sc1-c1nnc(-c2ccc(Br)cc2)o1 | 3
Cc1nc(-c2cccnc2)sc1-c1nnc(-c2cccnc2)o1 | 1
Cc1nc(-c2cccnc2)sc1-c1nnc(-c2ccc(Cl)cc2)o1 | 3
Cc1cccc(-c2nnc(-c3sc(-c4cccnc4)nc3C)o2)c1 | 3

###

Test: Selectivity index, ratio of CC50 for human HeLa cells to MIC for active stage of Mycobacterium bovis BCG ATCC 35734
Type: toxicity, cell-based
Settings: read-out: Selectivity Index

smiles | selectivity ratio
Cc1ccc(-c2nnc(-c3sc(-c4cccnc4)nc3C)o2)cc1 | 3
Cc1nc(-c2cccnc2)sc1-c1nnc(-c2ccc(Br)cc2)o1 | 3
Cc1nc(-c2cccnc2)sc1-c1nnc(Cc2ccccc2)o1 | 9
Cc1nc(-c2cccnc2)sc1-c1nnc(-c2ccc(O)cc2)o1 | 3
Cc1nc(-c2cccnc2)sc1-c1nnc(-c2cccnc2)o1 | 2

###

Test: Selectivity index, ratio of CC50 for human THP1 cells to MIC for active stage of Mycobacterium bovis BCG ATCC 35734
Format: toxicity, cell-based, THP-1
Settings: read-out: Selectivity Index
Examples of compounds with documented selectivity ratio follow.

smiles | selectivity ratio
Cc1nc(-c2cccnc2)sc1-c1nnc(-c2cccnc2)o1 | 2
Cc1nc(-c2cccnc2)sc1-c1nnc(-c2ccc(O)cc2)o1 | 3
COc1ccccc1-c1nnc(-c2sc(-c3cccnc3)nc2C)o1 | 38
Cc1nc(-c2cccnc2)sc1-c1nnc(Cc2ccccc2)o1 | 9
Cc1cccc(-c2nnc(-c3sc(-c4cccnc4)nc3C)o2)c1 | 3
Cc1nc(-c2cccnc2)sc1-c1nnc(-c2cccc(Cl)c2Cl)o1 | 3
Cc1nc(-c2cccnc2)sc1-c1nnc(-c2ccccc2[N+](=O)[O-])o1 | 39
Cc1nc(-c2cccnc2)sc1-c1nnc(-c2ccc(Cl)cc2)o1 | 3
Cc1ccc(-c2nnc(-c3sc(-c4cccnc4)nc3C)o2)cc1 | 3
Cc1nc(-c2cccnc2)sc1-c1nnc(-c2ccncc2)o1 | 2
Cc1nc(-c2cccnc2)sc1-c1nnc(-c2ccccc2)o1 | 3
Cc1nc(-c2cccnc2)sc1-c1nnc(-c2ccc([N+](=O)[O-])cc2)o1 | 3
